Provenance of the data: PubChem BioAssay

Target: Receptor tyrosine-protein kinase erbB-2 (Homo sapiens)
Assay: reducers of endogenous Her2 protein level, primary screen, SKBR3 breast tumor cells, AlphaScreen, ATP viability (AID 461);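 also: lower value means less Her2 protein in the cells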
Details: 18-24 h, at 10 µM, stronger effect = lower value
Threshold check on Her2 level: strictly below 90% is 1 (yes); on or above 90% is 0 (no).

Regarding `Cc1nnc(SCc2cn3ccsc3n2)n(N)c1=O` , kindly confirm whether its Her2 level is beneath 90%.
1 (yes)

Regarding O=C1CC2CS(=O)(=O)CC2N1c1ccc(Oc2ccccc2)cc1 (centres undefined) , kindly confirm whether its Her2 level is beneath 90%.
1 (yes)

Regarding CC(C)Oc1ccc(N2CC(C(=O)Nc3ccccc3F)CC2=O)cc1 (centres undefined) , kindly confirm whether its Her2 level is beneath 90%.
0 (no)

Regarding Fc1ccc(NCc2nnc(SCc3nnc(-c4ccccc4)o3)n2CC2CCCO2)cc1 (centres undefined) , kindly confirm whether its Her2 level is beneath 90%.
0 (no)

Regarding `Cn1c(-c2ccccc2)c(CCO)c2ccccc21` , kindly confirm whether its Her2 level is beneath 90%.
1 (yes)

---

Task for the reader: assign each of the following compounds its reported viability.
Assay: reversal of MRP1-mediated doxorubicin resistance, pilot screen, H69AR cells, doxorubicin co-treatment (AID 601)
Settings: H69AR cells, CellTiter-Glo, 72 h; compound alone cytotoxicity; at 10 µM
Numbers only here, please. The scale is %.

Tell me the measured viability of `COc1ccc(N2CCN(Cc3nc(-c4ccc(Cl)cc4Cl)no3)CC2)cc1` , please.
91.5

Tell me the measured viability of COc1ccc(-c2[nH]nc3c2C(c2ccccc2OC(=O)N2CCOCC2)C(C#N)=C(N)O3)cc1 (stereo not drawn) , please.
88.9

Tell me the measured viability of CC1CN(C(=O)c2cc3cc(Cl)cc(Cl)c3oc2=O)CC(C)O1 (stereo not drawn) , please.
92.4

---

Task for the reader: assign each of the following compounds its reported viability.
Experiment: reversal of MRP1-mediated doxorubicin resistance, pilot screen, H69AR cells, doxorubicin co-treatment (AID 601)
Conditions: H69AR cells, CellTiter-Glo, 72 h; compound alone cytotoxicity; at 10 µM
Numbers only here, please. The scale is %.

Tell me the measured viability of `CCOC(=O)N1CCN(c2c(N3CCN(c4ccccn4)CC3)c(=O)c2=O)CC1` , please.
92.5

Tell me the measured viability of `O=C(c1ccc2c(c1)c(=O)oc1ccccc12)N1CCCCC1` , please.
101

Tell me the measured viability of `COC(=O)CCSCc1cn2cc(Cl)ccc2n1` , please.
99.5

Tell me the measured viability of `CN(Cc1ccco1)C(=O)Cn1c(=O)oc2cc(S(=O)(=O)NCc3ccccc3)ccc21` , please.
89.8

Tell me the measured viability of `CCOc1ccc(-c2nc(C#N)c(N3CCCCCC3)o2)cc1` , please.
94.7

Tell me the measured viability of `O=C(CSc1ncn[nH]1)c1ccco1` , please.
94.7

Tell me the measured viability of `Cc1cc(Oc2ccccc2)nc(-c2ccccc2)n1` , please.
99.1

Tell me the measured viability of `COC(=O)c1cc(OC)c(OCc2cc(C(=O)OC)oc2C)c(OC)c1` , please.
90.7

Tell me the measured viability of CC(CN1CCN(C)CC1)OC(=O)c1ccc(Cl)cc1Cl (stereo unspecified) , please.
102

Tell me the measured viability of `NC(=O)CSc1nnc(-c2cnccn2)n1-c1ccccc1` , please.
89.8

Tell me the measured viability of COCCNC(=O)C(c1ccc(C)o1)N(Cc1ccc(OC)cc1)C(=O)Cn1nnc2ccccc21 (stereo unspecified) , please.
97.8

Tell me the measured viability of `C[C@@H]1C[C@H](O)c2cc(Cl)ccc2N1` , please.
87.1

Tell me the measured viability of COc1ccc(NC(=O)C(C)NS(=O)(=O)c2ccc(NC(C)=O)cc2)cc1Cl (stereo unspecified) , please.
95

Tell me the measured viability of `CC(C)(CO)NC(=O)CCCOc1ccc(Cl)cc1Cl` , please.
98.1

Tell me the measured viability of `NC(=O)C1CCN(CC(=O)N2c3ccccc3CCc3ccccc32)CC1` , please.
93.9

Tell me the measured viability of `N#CCCCCn1c(-c2cncs2)nc2ccccc21` , please.
93.8

Tell me the measured viability of `CCOC(=O)COc1ccc(S(=O)(=O)Nc2ccc3c(c2)OCO3)cc1` , please.
91

Tell me the measured viability of COc1ccc(C2/C(=C(/O)c3cnn(-c4ccccc4)c3C)C(=O)C(=O)N2CCN(C)C)cc1OC (stereo unspecified) , please.
101

Tell me the measured viability of `COc1ccc(CNC(=O)CN(C(=O)c2ccc(CN3CCOCC3)o2)C2CCCC2)cc1` , please.
93.1

Tell me the measured viability of `COc1cc(CC(=O)Nc2ncc(C)s2)cc(OC)c1OC` , please.
91.5

Tell me the measured viability of COc1ccc(N2CCN(C(c3cccc(OC)c3OC)c3nnnn3C3CCCC3)CC2)cc1 (stereo unspecified) , please.
88.5

Tell me the measured viability of O=C(C1CCCN(S(=O)(=O)c2cccs2)C1)N1CCc2ccccc2C1 (stereo unspecified) , please.
85.3

Tell me the measured viability of `Cc1cc(-c2ccccc2)c2nncn2n1` , please.
89.9

Tell me the measured viability of `O=C(CSc1nnc(-c2ccncc2)n1-c1ccc(F)cc1)NC(=O)NCc1ccco1` , please.
86

Tell me the measured viability of `O=S(=O)(NC1CCCC1)c1ccc(S(=O)(=O)N2CCc3ccccc32)cc1` , please.
71.5

Tell me the measured viability of `CCNS(=O)(=O)c1c(C)cc(N2CCCC2=O)cc1C` , please.
98.8

Tell me the measured viability of `CCOC(=O)c1cc2sccc2n1Cc1ccccc1` , please.
96

Tell me the measured viability of `O=C(OCC(=O)c1cccs1)C1=COCCO1` , please.
89.1

Tell me the measured viability of O=C(OC1CCOC1=O)c1ccc2ccccc2n1 (stereo unspecified) , please.
102

Tell me the measured viability of CC1=C(C(N)=O)C(c2cccnc2)n2nc(SCc3ccccc3Cl)nc2N1 (stereo unspecified) , please.
98.7

Tell me the measured viability of CC(C)=CCCC(C)N(C=O)C(C)CCC=C(C)C (stereo unspecified) , please.
87.8
